GI50 values, listed per item
- System: SF-295
- experiment_description: NCI tumour cell line growth inhibition, 48 h
Activity calls are given as the source filed them. No stated cut-off is given here; in the data, active = GI50 up to about 1.1 µM and inactive = higher.
measurement_kind: GI50

# molecule, result
measured = [
    ("COc1ccccc1N1C(=O)/C(=C\\c2cc(OC)c(OC)c(OC)c2)SC1c1ccccc1 (stereo unspecified)", "23.1 µM (inactive)"),
    ("BrCc1ccc2ccc3ccc(CBr)nc3c2n1", "10.4 µM (inactive)"),
    ("Cc1ccc([S+](c2ccccc2)c2cc(C)ccc2C)cc1.O=C(OC(C(=O)[O-])C(OC(=O)c1ccccc1)C(=O)O)c1ccccc1 (stereo unspecified)", "11.9 µM (inactive)"),
    ("COc1ccc(C/C(=N/O)C(=O)NCCc2cc(Br)c(OCCCN(C)C)c(Br)c2)cc1Br", "18.8 µM (inactive)"),
    ("N#Cc1c(-c2ccccc2)c(-c2ccccc2)cc2c(=O)c3ccc(Cl)cc3[nH]c12", "> 100 µM (inactive)"),
    ("O=C(/C=C1\\NC(=O)c2ccccc2N1)c1ccncc1", "> 100 µM (inactive)"),
    ("COC(=O)NCCc1n[nH]c2c1C(=O)C=C(Nc1ccccc1)C2=O", "30.3 µM (inactive)"),
    ("COc1ccc(/C=C2\\C(=O)Nc3ccccc32)cc1OC", "> 100 µM (inactive)"),
    ("CCCCCCN1CCc2c(C)c(C#N)c3nc4ccccc4n3c21", "> 100 µM (inactive)"),
    ("CCOC(=O)CCC(NC(=O)c1ccc(OCc2ccc3nc(OC)c(OC)nc3c2)cc1)C(=O)OCC (stereo unspecified)", "59.4 µM (inactive)"),
    ("O=C1c2scc(-c3ccc(Cl)cc3)c2-n2cccc21", "> 100 µM (inactive)"),
    ("O=C(Nc1c(Cl)cc([N+](=O)[O-])cc1Cl)C(=O)C(C(=O)c1ccncc1)C1OC(=O)c2ccccc21 (stereo unspecified)", "> 100 µM (inactive)"),
    ("Clc1ccc(/C(=C\\c2ccccc2)Cn2ccnc2)cc1", "17.9 µM (inactive)"),
    ("CCOP(=O)(OCC)/C(=C/NC(=S)c1ccncc1)C(=O)OC", "> 100 µM (inactive)"),
    ("CC(C)C(=O)/C=C/c1ccc(Cl)c(Cl)c1", "13.4 µM (inactive)"),
    ("O=C1Nc2ccc(Cl)cc2/C1=C\\c1c(Cl)nc2sccn12", "3.96 µM (inactive)"),
    ("FC(F)(F)c1cc(N(C2c3ccccc3C=Cc3ccccc32)P(Cl)Cl)cc(C(F)(F)F)c1", "19 µM (inactive)"),
    ("COc1cc(C2c3cc4c(cc3C3OC[C@@H]2C3CO)OCO4)cc(OC)c1OC (stereo partly specified)", "28.8 µM (inactive)"),
    ("O=C(CCCCCCCCC(=O)NN1C(=O)/C(=C\\c2ccc(O)c(O)c2)SC1c1ccc(Cl)cc1)NN1C(=O)/C(=C\\c2ccc(O)c(O)c2)SC1c1ccc(Cl)cc1 (stereo unspecified)", "16.2 µM (inactive)"),
    ("Cc1cn([C@@H]2O[C@H](CO)[C@@H](O)[C@@H]2O)c(=O)[nH]c1=O", "> 1000 µM (inactive)"),
    ("CC1=C(O)C(=O)C[C@]2(C)[C@H]3CC=C4[C@@H]5CC(C)(C)CC[C@@H]5C(=O)[C@H](O)[C@@]4(C)[C@]3(C)CC[C@@H]12", "37.8 µM (inactive)"),
    ("CCN(CC)CC1CCCCN1CC(=O)N1c2ccccc2NC(=O)c2ccccc21 (stereo unspecified)", "> 100 µM (inactive)"),
    ("COC(=O)C1C=CCON2CCc3c(n(S(=O)(=O)c4ccccc4)c4ccccc34)C12 (stereo unspecified)", "59.4 µM (inactive)"),
    ("CC(C)C1=CC23CCC4C(C)(C(=O)O)CCCC4(C)C2CC1C(C(=O)O)C3C(=O)O (stereo unspecified)", "> 100 µM (inactive)"),
    ("C[N+](C)(CCNc1ccc(NCC[N+](C)(C)Cc2ccc([N+](=O)[O-])cc2)c2c1C(=O)c1ccccc1C2=O)Cc1ccc([N+](=O)[O-])cc1", "> 100 µM (inactive)"),
    ("Cc1c(C(=O)O)sc2nc[nH]c(=O)c12", "> 100 µM (inactive)"),
    ("Cc1nc2c(Br)cc(Br)cc2c(=O)n1-c1ccccc1N", "53 µM (inactive)"),
    ("COc1ccc(C(=O)C(c2ccc(OCc3ccccc3)cc2)c2ccc(OCc3ccccc3)cc2)cc1", "> 100 µM (inactive)"),
    ("N/C(=N\\N/C=C1\\C=Nc2cc(C(F)(F)F)ccc2C1=O)NO", "> 10 µM (inactive)"),
    ("Cc1cc(=O)oc2c1cc1ccc3cccc4ccc2c1c34", "40.4 µM (inactive)"),
    ("CC(NC(=O)C1(N)CCCC1)C(=O)O (stereo unspecified)", "> 100 µM (inactive)"),
    ("CCCN(CCC)c1c([N+](=O)[O-])cc(C(=O)N(CCO)CCO)cc1[N+](=O)[O-]", "> 100 µM (inactive)"),
    ("Cc1cc(O)nc(CNC(=O)c2ccc3ccccc3c2)n1", "> 100 µM (inactive)"),
    ("CN(c1ccccc1Cl)S(=O)(=O)c1ccccc1", "> 100 µM (inactive)"),
    ("CCn1c(C)nc([N+](=O)[O-])c1Sc1ncc[nH]1", "> 100 µM (inactive)"),
    ("O=C1c2ccccc2C2(c3ccc(Cl)cc3)N[C@@H]3CCCC[C@@H]3N12 (stereo partly specified)", "> 100 µM (inactive)"),
    ("CC(C)N1CC2CC(CN(C(=O)c3ccc(Cl)cc3)C2)C1", "> 100 µM (inactive)"),
    ("O=C1CCc2c(sc3ncnc(Nc4cccc(Br)c4)c23)C1", "3.88 µM (inactive)"),
    ("Cn1ncc2c(Cl)ncnc21", "> 100 µM (inactive)"),
    ("CCOc1ccc2c(C)cc(=O)oc2c1", "> 100 µM (inactive)"),
    ("C=C/C=C(\\NC(=O)C(Cl)(Cl)Cl)[Si](C)(C)C", "> 100 µM (inactive)"),
]
